TARGET: porcine pancreatic elastase (Sus scrofa)
Sequence (P00772 27-266): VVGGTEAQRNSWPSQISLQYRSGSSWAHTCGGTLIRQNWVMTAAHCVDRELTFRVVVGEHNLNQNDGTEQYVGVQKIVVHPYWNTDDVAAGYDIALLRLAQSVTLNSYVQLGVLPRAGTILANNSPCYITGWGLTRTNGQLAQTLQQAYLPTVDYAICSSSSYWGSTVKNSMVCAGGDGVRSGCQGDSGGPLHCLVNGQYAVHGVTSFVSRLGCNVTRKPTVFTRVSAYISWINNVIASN
RESULT TYPE: IC50 (µM)
Numeric only. Scale: µM

[in] So what's the measured IC50 for this one? C[C@@H]1O[C@@H](OC[C@H]2O[C@@H](Oc3c(-c4ccc(O)c(O)c4)oc4cc(O)cc(O)c4c3=O)[C@H](O)[C@@H](O)[C@@H]2O)[C@H](O)[C@H](O)[C@H]1O
[out] 17.2
